All figures here come from the supplement of paper PMC11246515.

- test-name: total protein half-life in vivo (active degradation + dilution); higher = more stable protein
- test-conditions: wild type E. coli NCM3722; growth: C-lim chemostat; doubling time 12 h
metric: total protein half-life in vivo (h)
Numbers only, in h.

Examples with answers:
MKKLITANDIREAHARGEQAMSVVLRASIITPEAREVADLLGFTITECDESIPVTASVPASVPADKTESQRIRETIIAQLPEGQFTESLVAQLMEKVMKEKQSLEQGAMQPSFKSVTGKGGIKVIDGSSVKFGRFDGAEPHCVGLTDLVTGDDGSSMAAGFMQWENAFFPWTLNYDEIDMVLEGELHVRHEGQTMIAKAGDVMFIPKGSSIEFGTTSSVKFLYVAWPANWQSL    5.42
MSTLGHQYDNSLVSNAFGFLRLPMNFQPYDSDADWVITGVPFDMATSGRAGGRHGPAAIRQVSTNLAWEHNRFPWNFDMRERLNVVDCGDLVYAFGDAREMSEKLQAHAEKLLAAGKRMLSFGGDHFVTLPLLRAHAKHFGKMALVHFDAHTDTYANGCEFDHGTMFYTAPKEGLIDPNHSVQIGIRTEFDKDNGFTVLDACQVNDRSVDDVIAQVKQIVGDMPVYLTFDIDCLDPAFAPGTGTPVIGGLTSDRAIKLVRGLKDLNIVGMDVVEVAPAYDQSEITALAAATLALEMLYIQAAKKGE    11.8

Okay, now this sequence:
Which value of total protein half-life in vivo has been reported for MIIGNIHNLQPWLPQELRQAIEHIKAHVTAETPKGKHDIEGNRLFYLISEDMTEPYEARRAEYHARYLDIQIVLKGQEGMTFSTQPAGAPDTDWLADKDIAFLPEGVDEKTVILNEGDFVVFYPGEVHKPLCAVGAPAQVRKAVVKMLMA [P0AF96] in the records?
8.12
